Parameter Ki: see the listing below.
- Measurement Target: E. coli TS (Escherichia coli, UniProt P0A884)
- Sequence (P0A884 whole entry): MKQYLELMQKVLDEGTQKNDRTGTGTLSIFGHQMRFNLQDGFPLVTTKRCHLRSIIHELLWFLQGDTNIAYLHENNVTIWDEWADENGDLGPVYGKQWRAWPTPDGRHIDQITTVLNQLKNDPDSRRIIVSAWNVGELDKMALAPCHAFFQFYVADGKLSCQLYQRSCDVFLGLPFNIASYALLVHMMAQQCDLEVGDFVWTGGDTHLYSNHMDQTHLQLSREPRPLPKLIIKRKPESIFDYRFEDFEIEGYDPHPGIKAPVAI
- Protocol Details: Thymidylate synthase inhibition, enzymatic assay (Michaelis-Menten kinetics) on tether-free analogs
- Assay type: biochemical
- Test Conditions: Table 2, glutamate-grafted N-tosyl-proline derivatives
Reported Property: Ki (µM)

In [3]: df
Out[3]:
                                   molecule  reported_property  meas_value
0  O=C(O)C[C@H](NC(=O)c1ccc(S(=O)(=O)N2CCCC2C(=O)O)cc1)C(=O)O (stereo partly shown)                 Ki         242
1  NC(=O)[C@H](CCC(=O)O)NC(=O)c1ccc(S(=O)(=O)N2CCCC2C(=O)O)cc1 (stereo partly shown)                 Ki         378
2  NC(=O)CC[C@H](NC(=O)c1ccc(S(=O)(=O)N2CCCC2C(=O)O)cc1)C(=O)O (stereo partly shown)                 Ki          61
3  O=C(O)CCC[C@H](NC(=O)c1ccc(S(=O)(=O)N2CCCC2C(=O)O)cc1)C(=O)O (stereo partly shown)                 Ki          23
4  O=C(O)CCCCC[C@H](NC(=O)c1ccc(S(=O)(=O)N2CCCC2C(=O)O)cc1)C(=O)O (stereo partly shown)                 Ki          14
5  O=C(O)CCCC[C@H](NC(=O)c1ccc(S(=O)(=O)N2CCCC2C(=O)O)cc1)C(=O)O (stereo partly shown)                 Ki          32
6  O=C(O)CCCNC(=O)c1ccc(S(=O)(=O)N2CCCC2C(=O)O)cc1 (stereo not shown)                 Ki         246
